system: Fibroblast; test: Incucyte cell viability with human fibroblast; format: toxicity, cell-based; details: 24 h, 10 µM, compound concentration 10 uM, replicate number 2; further: unitless GR value; below 1 slowed growth and below 0 cell loss
Peptide text beside a SMILES is read from it. * marks the point of attachment. CH2Cl = ClC*
Classes (Growth Rate): class 1 (below -0.2), class 2 (-0.2 to below 0.7), class 3 (0.7 or more)

>  <compound>
COc1cc2c(NC3CCN(C)CC3)cc(-c3ccc(C)o3)nc2cc1OCCCN1CCCC1

>  <label>
class 1

$$$$
>  <compound>
CCN(CCN(C)C)C(=O)CNCc1cc(C(N)=O)ccn1.Cl.O

>  <label>
class 2

$$$$
>  <compound>
COc1cc(C)[nH]c(=O)c1CNC(=O)c1c(C)n([C@H](C)C2CCN(CC(F)(F)F)CC2)c2ccccc12 [CPI-1205]

>  <label>
class 2

$$$$
>  <compound>
CCC[C@@H]1CNCc2c1[nH]c(=O)c(C#N)c2N1CCC2(CC1)CC2.Cl

>  <label>
class 3

$$$$
>  <compound>
CC(=O)N[C@@H](Cc1ccccc1)C(=O)N[C@@H](CC(C)C)C(=O)N[C@H](C(=O)N[C@@H](CC(=O)O)C(=O)CCl)[C@@H](C)O (Ac-FLTD-CH2Cl)

>  <label>
class 3

$$$$
>  <compound>
CCN1C(C)(C)CC(Oc2ccc(C(=O)Nc3ccc(NC(=O)Nc4cc(C(C)(C)C)on4)cc3)nc2)CC1(C)C

>  <label>
class 3

$$$$
>  <compound>
C=C(C)[C@@H](CC=C(C)C)C[C@@]12C[C@@H](CC=C(C)C)C(C)(C)[C@@](CC=C(C)C)(C(=O)C(C(=O)c3ccc(O)c(O)c3)=C1O)C2=O [GARCINOL]

>  <label>
class 3

$$$$
>  <compound>
CN(C)Cc1ccc(S(=O)(=O)n2ccc(/C=C/C(=O)NO)c2)cc1.Cl

>  <label>
class 2

$$$$
>  <compound>
Cc1ccc(NC2=CC(=O)c3sc(C)nc3C2=O)cc1

>  <label>
class 1

$$$$
>  <compound>
CC(=O)O[C@]1(C(C)=O)CC[C@H]2[C@@H]3CCC4=CC(=O)CCC4=C3[C@@H](c3ccc(N(C)C)cc3)C[C@@]21C [ULIPRISTAL ACETATE]

>  <label>
class 3

$$$$
>  <compound>
O=C(NO)C(c1ccc(-c2ncc(C(F)(F)F)cn2)cc1)c1ccccc1F (stereo not given)

>  <label>
class 1

$$$$
>  <compound>
Nc1ccccc1NC(=O)CCCCCC(=O)Nc1ccccc1

>  <label>
class 2

$$$$
>  <compound>
OC1CN=C2c3ccn([C@@H]4O[C@H]([C@H](O)c5ccc(Cl)cc5)[C@@H](O)[C@H]4O)c3N=CN21 (stereo not given in full)

>  <label>
class 1

$$$$
>  <compound>
O=C(C1CC1)N1CC[C@@H](Cc2n[nH]c(=O)n2-c2ccc(-c3ccc4occc4c3)cc2)C1

>  <label>
class 2

$$$$
>  <compound>
O=C(COc1ccc(-c2oc3cc(O)c(C(=O)O)cc3c2C#Cc2cccc(Cl)c2)cc1)NC1CC1

>  <label>
class 2

$$$$
>  <compound>
COc1cc(C(C)C)c2c(c1)S(=O)(=O)N(COc1cc(=O)n3cccc(OCCN4CCCCC4)c3n1)C2=O

>  <label>
class 1

$$$$
>  <compound>
O=C(NO)c1cnc(NC2(c3ccccc3)CC2)nc1

>  <label>
class 2

$$$$
>  <compound>
COC(=O)[C@@H]1CC2=CC(=O)CC[C@]2(C)[C@@]23O[C@@H]2C[C@@]2(C)[C@@H](CC[C@@]24CCC(=O)O4)[C@H]13 [EPLERENONE]

>  <label>
class 3

$$$$
>  <compound>
Cc1ncsc1-c1ccc(CNC(=O)[C@@H]2C[C@@H](O)CN2C(=O)[C@@H](NC(=O)COCCOCCOc2ccc(-c3ccc4ncnc(Nc5ccc(OCc6cccc(F)c6)c(Cl)c5)c4c3)cc2)C(C)(C)C)cc1

>  <label>
class 2

$$$$
>  <compound>
C/C=C1\NC(=O)[C@H]2CSSCC/C=C/[C@H](CC(=O)N[C@H](C(C)C)C(=O)N2)OC(=O)[C@H](C(C)C)NC1=O [ROMIDEPSIN]

>  <label>
class 1

$$$$
>  <compound>
C[C@H]1CCCN1Cc1nc2cc(NC(=O)c3ccc4c(cnn4C)c3)ccc2[nH]1

>  <label>
class 3

$$$$
>  <compound>
COc1ccc2c(c1)OC(C)(C)C(c1ccccc1)C2c1ccc(OCCN2CCCC2)cc1 (stereo not given) [ORMELOXIFENE]

>  <label>
class 3

$$$$
>  <compound>
C[C@H](Nc1cc(Cl)nc2c1cnn2[C@@H]1O[C@H](COP(=O)(O)CP(=O)(O)O)[C@@H](O)[C@H]1O)c1ccccc1F

>  <label>
class 3

$$$$
>  <compound>
CC[C@H](C)[C@H](NC(C)=O)C(=O)N[C@@H](CCC(=O)O)C(=O)N[C@H](C(=O)N[C@H](C=O)CC(=O)O)[C@@H](C)O.O=C(O)C(F)(F)F (Ac-IETD-aldehyde)

>  <label>
class 2

$$$$
>  <compound>
Cc1ncsc1-c1ccc([C@H](C)NC(=O)[C@@H]2C[C@@H](O)CN2C(=O)[C@@H](NC(=O)COCCCOCCNC(=O)C[C@@H]2N=C(c3ccc(Cl)cc3)c3c(sc(C)c3C)-n3c(C)nnc32)C(C)(C)C)cc1

>  <label>
class 1

$$$$
>  <compound>
Cc1cc(OCc2nnc(SC3CCCC3)n2-c2cccnc2)ccc1-c1ccc(S(C)(=O)=O)cc1

>  <label>
class 1

$$$$
>  <compound>
FC(F)(F)Oc1ccc(Oc2ccnc(N3CCC(NC(=S)Nc4cccnc4)CC3)c2Cl)c(Cl)c1

>  <label>
class 2

$$$$
>  <compound>
COc1cc(O)c2c(c1)/C=C\C[C@H](O)[C@H](O)C(=O)/C=C\C[C@H](C)OC2=O

>  <label>
class 1

$$$$
